Reported FACS Cell Binding (Fold Above Background) by item:
- System: HEK293 (non-expressing parental cells)
- Protocol details: FACS cell surface binding
- Method: The ability of anti-PRLR antibodies to selectively bind PRLR expressing cell lines was next determined. […] Cell surface expression of PRLR on 293/hPRLR cells was assessed via FACS analysis. […] Following two additional washes, samples were run on a Hypercyt® cytometer and analyzed in FORECYT™ (IntelliCyt, Albuquerque, N. Mex.). The mean fluorescence intensities (MFI) were expressed as fold change above isotype control levels (background). […]
The answer is to be given in Fold Above Background; state only the numeric part.

Molecule | Unit label | Recorded measurement
H1H6800P: anti-PRLR antibody, human IgG1 Fc; HCVR/LCVR SEQ ID NOs 194/202 (antibody, V domains shown, human IgG1 Fc) VH: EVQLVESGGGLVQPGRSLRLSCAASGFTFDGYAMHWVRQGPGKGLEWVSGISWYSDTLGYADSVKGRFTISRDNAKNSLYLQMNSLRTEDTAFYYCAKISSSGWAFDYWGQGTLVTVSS VL: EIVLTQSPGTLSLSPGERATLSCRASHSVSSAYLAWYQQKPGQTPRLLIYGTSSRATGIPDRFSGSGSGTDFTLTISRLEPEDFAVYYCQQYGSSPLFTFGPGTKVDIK | Fold Above Background | 1

In: I'd like to know its FACS Cell Binding (Fold Above Background). The molecule in question is H1H6782P: anti-PRLR antibody, human IgG1 Fc; HCVR/LCVR SEQ ID NOs 66/74; non-blocking (antibody, V domains shown, human IgG1 Fc) VH: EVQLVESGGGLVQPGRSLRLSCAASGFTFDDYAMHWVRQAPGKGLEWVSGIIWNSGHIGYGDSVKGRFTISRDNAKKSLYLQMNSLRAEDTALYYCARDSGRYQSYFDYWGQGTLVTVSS VL: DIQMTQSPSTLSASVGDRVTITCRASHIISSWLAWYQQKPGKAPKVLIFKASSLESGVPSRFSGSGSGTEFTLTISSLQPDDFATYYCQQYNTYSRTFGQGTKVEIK
Out: 3
